tested on: M. tuberculosis H37Rv growth inhibition; assay: Mycobacterium tuberculosis H37Rv growth inhibition, putative kinase inhibitor library, confirmatory dose response (AID 2842);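 also: bacteria incubated one week before Alamar blue readout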
Recorded IC90, one value per entry.

[
  {
    "Compound": "CC(C)C(=O)Nc1nnc(-c2ccc(Br)cc2)o1",
    "IC90": "1.24 µg/mL"
  },
  {
    "Compound": "Cc1ccc(Nc2nc(N3CCN(Cc4ccccc4)CC3)nc3nccnc23)cc1Cl",
    "IC90": "2.67 µg/mL"
  },
  {
    "Compound": "O=C(OC1CCCCC1)c1cc2ccccc2oc1=O",
    "IC90": "49 µg/mL"
  },
  {
    "Compound": "CC(C)N1CCc2c(sc(NC(=O)c3cc4c(ccc5ccccc54)oc3=O)c2C(N)=O)C1",
    "IC90": "40.2 µg/mL"
  },
  {
    "Compound": "CCC(=O)Nc1nnc(-c2cc(Cl)ccc2Cl)o1",
    "IC90": "30.1 µg/mL"
  }
]

Request: Identify the measured IC90 of O=C(Nc1nnc(-c2ccc3c(c2)CCCC3)o1)c1ccccc1Cl for M. tuberculosis H37Rv growth inhibition.
Result: 1.11 µg/mL

Request: Recorded IC90 for O=C(c1cccs1)N(CCCn1ccnc1)c1nc2c(F)cc(F)cc2s1 with M. tuberculosis H37Rv growth inhibition, please?
Result: 2.38 µg/mL

Request: Give the reported IC90 for COc1cccc(-c2nnc(NC(=O)c3ccc4c(c3)CCCC4)o2)c1 (system: M. tuberculosis H37Rv growth inhibition).
Result: 5.48 µg/mL

Request: What value of IC90 on M. tuberculosis H37Rv growth inhibition does O=C(Cc1ccccc1)Nc1nnc(-c2ccc(F)cc2)o1 have?
Result: 8.35 µg/mL

Request: Lab note: need IC90 for CCOc1ccc(-c2nnc3c4cc5c(cc4n(Cc4ccccc4OC)cc2-3)OCO5)cc1 on M. tuberculosis H37Rv growth inhibition, anyone have it?
Result: 9.22 µg/mL

Request: API: value(readout= IC90, system= M. tuberculosis H37Rv growth inhibition, query= Cc1cccc2sc(NNC(=O)c3ccc(N(C)C)cc3)nc12 )
Result: 28.6 µg/mL

----------
test system: M. tuberculosis H37Rv growth inhibition; assay: Mycobacterium tuberculosis H37Rv growth inhibition, putative kinase inhibitor library, confirmatory dose response (AID 2842);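 also: bacteria incubated one week before Alamar blue readout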
// reported IC90 for each item listed

[
  {
    "Molecule": "N#Cc1c(NC(=O)c2cc(Cl)ccc2Cl)sc2c1CCN(Cc1ccccc1)C2",
    "IC90": "12.3 µg/mL"
  },
  {
    "Molecule": "CC(=O)OCn1nnc2ccccc2c1=O",
    "IC90": "3.33 µg/mL"
  },
  {
    "Molecule": "Cc1ccc(-c2nnc(NC(=O)c3ccc4c(c3)CCCC4)o2)c(C)c1",
    "IC90": "36.9 µg/mL"
  },
  {
    "Molecule": "CCOc1ccc2c(c1)c1nnc(-c3ccc(OC)cc3)c-1cn2Cc1cccc(C)c1",
    "IC90": "20.7 µg/mL"
  },
  {
    "Molecule": "Cc1ccc2nc(N(CCCn3ccnc3)C(=O)c3ccco3)sc2c1",
    "IC90": "0.48 µg/mL"
  },
  {
    "Molecule": "COc1ccc(CC2S/C(=N/N=C/c3ccccc3O)NC2=O)cc1 (stereo not drawn)",
    "IC90": "< 0.2 µg/mL"
  }
]

Request: Find the measured IC90: item CCOc1cccc2sc(Nc3nc4ccc(OC)cc4s3)nc12 , target or system M. tuberculosis H37Rv growth inhibition.
Result: 3.19 µg/mL

Request: Lab note: need IC90 for O=C(Nc1nnc(-c2cccnc2)o1)c1ccccc1Cl on M. tuberculosis H37Rv growth inhibition, anyone have it?
Result: 53.5 µg/mL

Request: Query the reported IC90 for M. tuberculosis H37Rv growth inhibition; item: Cc1cc(C)c2nc(NNC(=O)c3ccc(N(C)C)cc3)sc2c1
Result: 3.23 µg/mL

----------
Entries and their IC90
system: M. tuberculosis H37Rv growth inhibition; test: Mycobacterium tuberculosis H37Rv growth inhibition, putative kinase inhibitor library, confirmatory dose response (AID 2842);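 also: bacteria incubated one week before Alamar blue readout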

Completed entries (count: 8):
[
  {
    "Molecule smiles": "N#Cc1ccc(C(=O)Nc2nnc(-c3ccc(Cl)cc3)o2)cc1",
    "Reported value": "56.7 µg/mL"
  },
  {
    "Molecule smiles": "COc1ccc2nc(NNC(=O)c3cccc(F)c3)sc2c1",
    "Reported value": "15.8 µg/mL"
  },
  {
    "Molecule smiles": "O=C(Nc1nc2c(s1)CCCC2)c1ccc(Cc2ccccc2)cc1",
    "Reported value": "7.01 µg/mL"
  },
  {
    "Molecule smiles": "O=C(CCOc1ccccc1)Nc1nnc(-c2ccc3c(c2)CCCC3)o1",
    "Reported value": "18.1 µg/mL"
  },
  {
    "Molecule smiles": "Cc1ccc(C)c(-c2nnc(NC(=O)c3ccc([N+](=O)[O-])s3)o2)c1",
    "Reported value": "3.09 µg/mL"
  },
  {
    "Molecule smiles": "COc1cccc(NCCCn2c(C)cn3c4c(=O)[nH]c(=O)n(C)c4nc23)c1",
    "Reported value": "46.2 µg/mL"
  },
  {
    "Molecule smiles": "Cc1c(C)n2c3c(=O)[nH]c(=O)n(C)c3nc2n1CCCNc1ccccc1Cl",
    "Reported value": "25.4 µg/mL"
  },
  {
    "Molecule smiles": "COc1cccc(-c2nnc(NC(=O)c3ccc(Cl)cc3)o2)c1",
    "Reported value": "33.8 µg/mL"
  }
]

Request: For the molecule shown here, O=C(Nc1nnc(-c2cc(Cl)ccc2Cl)o1)c1cc(-c2ccccc2)nc2ccccc12 , give the reported IC90.
Result: 1.96 µg/mL

Request: // IC90 lookup, key: CCOC(=O)c1ccc2nc(NC(=O)C(C)C)sc2c1
Result: 19.5 µg/mL

Request: Item under review: CSc1cccc(-c2nnc(NC(=O)c3cc([N+](=O)[O-])ccc3Cl)o2)c1 . Reported IC90?
Result: 0.88 µg/mL

----------
test system: M. tuberculosis H37Rv growth inhibition; assay: Mycobacterium tuberculosis H37Rv growth inhibition, putative kinase inhibitor library, confirmatory dose response (AID 2842);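 also: bacteria incubated one week before Alamar blue readout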
This listing pairs molecules with measured IC90.

[
  {
    "Molecule": "Cc1ccc(-c2nnc(NC(=O)c3nc4ccccc4s3)o2)c(C)c1",
    "IC90": "1.76 µg/mL"
  },
  {
    "Molecule": "CC(=O)N1CCc2c(sc(NC(=O)c3ccc(C)c(C)c3)c2C(N)=O)C1",
    "IC90": "3.4 µg/mL"
  },
  {
    "Molecule": "Cc1cc(NC(=O)NCCCSc2nc3ccccc3o2)no1",
    "IC90": "29.1 µg/mL"
  },
  {
    "Molecule": "C=CCOC(=O)C1=C(C)NC(SCC(=O)OCC)=C(C#N)C1c1cccs1 (stereo unspecified)",
    "IC90": "4.44 µg/mL"
  },
  {
    "Molecule": "O=C(Nc1ncc(Cc2ccc(F)cc2)s1)c1cccc(-n2cnnn2)c1",
    "IC90": "10.2 µg/mL"
  },
  {
    "Molecule": "Cc1cc(C)c2nc(NNC(=O)c3ccccc3F)sc2c1",
    "IC90": "3.08 µg/mL"
  }
]

Request: # input molecule: Cc1cc(C)c2nc(NNC(=O)c3cc(-c4cccs4)nc4ccccc34)sc2c1 ; wanted: its IC90
Result: 24.6 µg/mL

Request: Report IC90 for Cc1ccc(-c2nnc(NC(=O)CCSc3ccccc3)o2)c(C)c1 please.
Result: 15.1 µg/mL

Request: Would you mind telling me what IC90 value was observed for Cc1ccc(-c2nnc(NC(=O)c3ccc(Br)cc3)o2)c(C)c1 ?
Result: 52.2 µg/mL

Request: Reported IC90, molecule CC(=O)Nc1nnc(-c2cc(C)ccc2C)o1 : ____
Result: 20.2 µg/mL

Request: So what's the measured IC90 for this one? CCOc1ccc(NCCCn2c(C)cn3c4c(=O)[nH]c(=O)n(C)c4nc23)cc1
Result: 20.5 µg/mL

----------
Measured IC90 accompanies every entry in the list below.
test system: M. tuberculosis H37Rv growth inhibition; experiment: Mycobacterium tuberculosis H37Rv growth inhibition, putative kinase inhibitor library, confirmatory dose response (AID 2842);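 also: bacteria incubated one week before Alamar blue readout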

[
  {
    "Molecule": "O=C(CSc1c[nH]c2ccccc12)Nc1ccc(Br)cc1",
    "IC90": "3.2 µg/mL"
  },
  {
    "Molecule": "CCOc1cccc2sc(N(CCCn3ccnc3)C(=O)Cc3ccc(F)cc3)nc12",
    "IC90": "4.84 µg/mL"
  },
  {
    "Molecule": "COc1cccc(C(=O)N(CCCn2ccnc2)c2nc3c(C)cccc3s2)c1OC",
    "IC90": "4.2 µg/mL"
  }
]

Request: Give its IC90 value. Item: COc1ccc(C2c3cccn3CCN2C(=O)Nc2ccc(Cl)cc2)cc1 (configuration not stated)
Result: 9.87 µg/mL

Request: # get_value(readout='IC90', item= O=C(/C=C/c1cccs1)N(CCCn1ccnc1)c1nc2ccccc2s1 )
Result: 1.43 µg/mL

Request: Could you tell me which IC90 is on file for CS(=O)(=O)c1ccc2nc(Nc3nc4ccc(Cl)cc4s3)sc2c1 ?
Result: 9.7 µg/mL

Request: Which value of IC90 has been reported for O=C(O)c1ccccc1NC1=C(Cl)C(=O)N(c2cccc(Cl)c2)C1=O in the records?
Result: 21.3 µg/mL

Request: Could you share which IC90 value was measured for O=C(Nc1nnc(C2=COCCO2)o1)c1ccc2c(c1)CCCC2 ?
Result: 0.44 µg/mL
